# subject of test: T1, human TIGIT-Fc (human, UniProt Q495A1 22-141, limits assumed)
# T1 construct: not shown: Fc; not described
# T1 sequence (looked up): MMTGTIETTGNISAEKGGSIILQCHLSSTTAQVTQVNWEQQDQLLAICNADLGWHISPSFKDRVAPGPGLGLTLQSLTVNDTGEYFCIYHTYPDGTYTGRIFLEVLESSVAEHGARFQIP
# assay method text: CD155 competition ELISA, single point; also: test concentration or dose not given here

{"columns": ["binder", "OD (450 nm) [OD]"],
 "data": [
  ["TIGIT-SC91 (Fc fusion, VHH-Fc) VHH: EVQLVESGGGLVQPGGSLRLSCAASGFTFSNYAMGWFRQAPGKEREFVAAINWNSRSTYYADSVKGRFTISADNSKNTAYLQMNSLKPEDTAVYYCARWRSIWSGYDDYYYMDVWGQGTLVTVSS", 0.484],
  ["TIGIT-SC71 (Fc fusion, VHH-Fc) VHH: EVQLVESGGGLVQPGGSLRLSCAASGSIRSLNAMGWFRQAPGKEREFVAAINWDSARTYYADSVKGRFTISADNSKNTAYLQMNSLKPEDTAVYYCARWSAKRHSDTMTYYMDVWGQGTLVTVSS", 0.868],
  ["TIGIT-SC79 (Fc fusion, VHH-Fc) VHH: EVQLVESGGGLVQPGGSLRLSCAASGSILSINTMGWFRQAPGKEREFVAAITSAGGTTYYADSVKGRFTISADNSKNTAYLQMNSLKPEDTAVYYCARWHYDILTGYYWLDSWGQGTLVTVSS", 0.8],
  ["TIGIT-SC3 (Fc fusion, VHH-Fc) VHH: EVQLVESGGGLVQPGGSLRLSCAASGTFQRINAMGWFRQAPGKEREFVSTINWSGSNTYYADSVKGRFTISADNSKNTAYLQMNSLKPEDTAVYYCASSYSSSSGLGDIWGQGTLVTVSS", 0.748],
  ["TIGIT-SC41 (Fc fusion, VHH-Fc) VHH: EVQLVESGGGLVQPGGSLRLSCAASGMTTIGPMGWFRQAPGKEREFVASIAWGDGNTYYADSVKGRFTISADNSKNTAYLQMNSLKPEDTAVYYCVRGGSRTLWGQGTLVTVSS", 0.0921],
  ["TIGIT-SC60 (Fc fusion, VHH-Fc) VHH: EVQLVESGGGLVQPGGSLRLSCAASGFTFSPSWMGWFRQAPGKEREWVASVLRGGYTWYADSVKGRFTISADNSKNTAYLQMNSLKPEDTAVYYCARDDLDYWGQGTLVTVSS", 0.349],
  ["TIGIT-SC210 (Fc fusion, VHH-Fc) VHH: EVQLVESGGGLVQPGGSLRLSCAASGFLFDSYWMVWFRQAPGKEREFVAAIWRSGTLKAYADSVKGRFTISADNSKNTAYLQMNSLKPEDTAVYYCARDHRAMVAPFDYWGQGTLVTVSS", 0.516],
  ["TIGIT-SC163 (Fc fusion, VHH-Fc) VHH: EVQLVESGGGLVQPGGSLRLSCAASGFTFDRSWMGWFRQAPGKEREWVASVLRGGYTWYADSVKGRFTISADNSKNTAYLQMNSLKPEDTAVYYCATDKRGPHPDYWGQGTLVTVSS", 0.328]
]}
